Source: patent US8338414B2

Listed here: items and their measured melting point.

Recorded results for 7 compounds are shown here.
COMPOUND: Oc1ccc2nc(C(F)F)n(-c3nc(N4CCOCC4)nc(N4CCOCC4)n3)c2c1 [Compound 16]
melting point: > 250 °C
--
COMPOUND: CC1CN(c2cc(N3CC(C)OC(C)C3)nc(-n3c(C(F)F)nc4cc(N)ccc43)n2)CC(C)O1 (centres unmarked) [Compound 17]
melting point: 157 to 160 °C
--
COMPOUND: FC(F)c1nc2ccccc2n1-c1nc(N2CCCCC2)nc(N2CCOCC2)n1 [Compound 7]
melting point: 190 to 192 °C
--
COMPOUND: Oc1ccc2c(c1)nc(C(F)F)n2-c1nc(N2CCOCC2)nc(N2CCOCC2)n1 [Compound 12]
melting point: 272 to 274 °C
--
COMPOUND: Cc1cccc2c1nc(C(F)F)n2-c1nc(N2CCOCC2)nc(N2CCOCC2)n1 [Compound 10]
melting point: 259 to 260 °C
--
COMPOUND: C[C@@H]1OCCN(c2nc(N3CCOCC3)nc(-n3cnc4ccccc43)n2)[C@H]1C (relative stereo) [Compound 2]
melting point: 147 to 150 °C
--
COMPOUND: O=C1CCN(c2nc(N3CCOCC3)nc(-n3c(C(F)F)nc4ccccc43)n2)CCN1 [Compound 25]
melting point: 235 to 237 °C

We now examine a further compound.
Record summary for OCc1nc2ccccc2n1-c1nc(N2CCOCC2)nc(N2CCOCC2)n1 [Compound 3] : reported melting point = 208 to 210 °C (dec.)
